test: ABTS radical scavenging activity assessed as trolox equivalents by TEAC assay; type: physicochemical
Below is a list of entries, each paired with its recorded Activity value.
Respond numerically; units are mmol/L and should not be typed.

# annotated cases, reported Activity shown
C/C(=C\C(=O)C/C(C)=C/Cc1cc(O)cc(C)c1O)CC/C=C(\C)Cc1cc(C)co1 0.08
C/C(=C/CC/C(C)=C/CC/C(C)=C/C(=O)C/C(C)=C/Cc1cc(O)cc(C)c1O)CO 0.09

Shifting focus to the compound that follows.
[in] For the compound `Cc1c(C)c2c(c(C)c1O)CC[C@@](C)(CCC[C@H](C)CCC[C@H](C)CCCC(C)C)O2` , report Activity.
[out] 0.63
